Target Entity: huSTING (WT) (Homo sapiens (Human), UniProt Q86WV6, H232R)
Assay Overview: Differential scanning fluorimetry (DSF), huSTING (WT)
Assay type: binding
Condition Summary: compound 100 μM; protein concentration 2 μM
Sequence (Q86WV6 other isoform, or with tags, fused parts or gaps, stated change not applied): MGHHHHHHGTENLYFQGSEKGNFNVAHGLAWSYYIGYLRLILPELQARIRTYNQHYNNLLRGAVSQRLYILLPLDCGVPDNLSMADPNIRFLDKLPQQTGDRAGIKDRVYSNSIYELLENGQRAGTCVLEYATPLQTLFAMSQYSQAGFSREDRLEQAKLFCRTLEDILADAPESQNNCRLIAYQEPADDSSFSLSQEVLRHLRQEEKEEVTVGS
Please enter criterion met where DSF huSTING (WT) ΔTm (° C.) is greater than or equal to -1 °C, and criterion not met where it is lower.

Field: example entries. Status: answers known.
[[record]]
smiles_representation = "NC(=O)c1cc(F)c(OCc2c(C(=O)O)sc3cccc(Cl)c23)c(CO)c1"
group = "criterion met"

[[record]]
smiles_representation = "CN(C)C(=O)COC(=O)c1sc2cccc(Cl)c2c1COc1c(F)cc(C(N)=O)cc1F"
group = "criterion not met"

[[record]]
smiles_representation = "NC(=O)CNC(=O)c1sc2cccc(Cl)c2c1COc1c(F)cc(C(N)=O)cc1F"
group = "criterion met"

[[record]]
smiles_representation = "COC(=O)NCCOC(=O)c1sc2cccc(Cl)c2c1COc1c(F)cc(C(N)=O)cc1F"
group = "criterion not met"

[[record]]
smiles_representation = "NC(=O)c1ccc(OCc2c(C(=O)NCCc3ccccc3)sc3cccc(Br)c23)cc1"
group = "criterion met"


// next entry
INPUT: Exam item: decide whether the reported DSF huSTING (WT) ΔTm (° C.) for COC(=O)N(C)CCOC(=O)c1sc2cccc(Cl)c2c1COc1c(F)cc(C(N)=O)cc1F is at least -1 °C.
OUTPUT: criterion not met

====

Target Entity: huSTING (WT) (Homo sapiens (Human), UniProt Q86WV6, H232R)
Assay Overview: THP-1 reporter cell line assay, THP-1-Dual KI-hSTING-R232 cells
Type: cell-based
Condition Summary: read-out: Cellular EC50 huSTING (WT)
Sequence (Q86WV6 whole entry H232R): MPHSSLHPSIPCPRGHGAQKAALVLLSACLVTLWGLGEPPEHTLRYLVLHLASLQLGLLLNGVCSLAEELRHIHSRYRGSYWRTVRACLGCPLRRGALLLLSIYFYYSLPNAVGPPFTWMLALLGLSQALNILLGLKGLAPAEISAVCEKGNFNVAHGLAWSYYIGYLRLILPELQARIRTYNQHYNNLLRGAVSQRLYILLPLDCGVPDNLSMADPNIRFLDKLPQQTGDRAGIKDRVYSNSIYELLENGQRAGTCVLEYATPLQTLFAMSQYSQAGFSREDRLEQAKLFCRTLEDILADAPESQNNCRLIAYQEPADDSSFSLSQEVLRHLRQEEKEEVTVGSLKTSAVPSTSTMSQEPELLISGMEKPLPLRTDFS
Label 1 when EC50 is strictly below 2000 nM; at or above that, label -1.

Field: example entries. Status: answers known.
[[record]]
compound = "CCC(=O)OC(OC(=O)c1sc2cccc(Cl)c2c1COc1c(F)cc(C(N)=O)cc1F)C(C)C (centres unmarked)"
group = 1

[[record]]
compound = "CCOC(=O)c1sc2cccc(OCC)c2c1COc1c(F)cc(C(N)=O)cc1F"
group = 1

[[record]]
compound = "CCOC(=O)c1sc2cccc(Cl)c2c1COc1ccc(C(N)=O)cc1C#N"
group = -1


INPUT: Does the reported EC50 of the following compound sit strictly below 2000 nM? NC(=O)c1ccc(OCc2c(C(=O)O)sc3cccc(Cl)c23)cc1F
OUTPUT: -1

INPUT: Next entry: CCOC(=O)c1sc2cccc(COC)c2c1COc1c(F)cc(C(N)=O)cc1F
OUTPUT: 1

INPUT: Next entry: NC(=O)c1ccc(OCc2c(C(=O)O)sc3cc(Cl)cc(F)c23)cc1
OUTPUT: -1

INPUT: Next entry: Cc1ccc2sc(C(=O)OCOC(=O)C(C)(C)C)c(COc3ccc(C(N)=O)cc3)c2c1Cl
OUTPUT: -1

====

Target Entity: human STING (HAQ) (Homo sapiens, UniProt Q86WV6, G230A/H232R/R293Q)
Sequence (Q86WV6 whole entry G230A/H232R/R293Q, looked up): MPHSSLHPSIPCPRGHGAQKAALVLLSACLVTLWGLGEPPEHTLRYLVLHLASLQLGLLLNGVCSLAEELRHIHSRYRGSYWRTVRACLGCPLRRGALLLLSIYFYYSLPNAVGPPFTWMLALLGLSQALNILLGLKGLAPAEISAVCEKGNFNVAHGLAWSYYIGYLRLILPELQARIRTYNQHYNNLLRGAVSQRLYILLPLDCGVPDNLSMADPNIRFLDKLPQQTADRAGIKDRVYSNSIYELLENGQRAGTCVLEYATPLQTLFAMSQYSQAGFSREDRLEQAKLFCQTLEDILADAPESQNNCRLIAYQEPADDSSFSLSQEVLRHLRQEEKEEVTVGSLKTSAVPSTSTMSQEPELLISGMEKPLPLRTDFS
Assay Overview: biochemical
Format: binding
Condition Summary: read-out: DSF huSTING (HAQ) ΔTm (° C.)
Measurement Kind: ΔTm at 100 µM (°C)
Give bare numbers, in °C.

Hey, quick one: what's ΔTm at 100 µM for each of these?
1. CCOC(=O)c1sc2cccc(F)c2c1COc1ccc(C(N)=O)cc1F
2. CCOC(=O)c1sc2c(Cl)cccc2c1COc1ccc(C(N)=O)cc1

OUTPUT:
0.43
0.29

====

Target Entity: huSTING (WT) (Homo sapiens (Human), UniProt Q86WV6, H232R)
Assay Overview: THP-1 reporter cell line assay, THP-1-Dual KI-hSTING-R232 cells
Format: cell-based
Please go through the items and note down their EC50.
Answers are plain numbers, in nM.

[[record]]
compound = "CCOP(=O)(COC(=O)c1sc2cccc(Cl)c2c1COc1c(F)cc(C(N)=O)cc1F)OCC [Example 143]"
measurement_kind = "EC50"
unit_text = "nM"
recorded_measurement = 381


INPUT: Which measured EC50 belongs to COCCOC(=O)c1sc2cccc(Cl)c2c1COc1c(F)cc(C(N)=O)cc1F [Example 158] , tested on huSTING (WT) (Homo sapiens (Human), UniProt Q86WV6, H232R)?
OUTPUT: 949

====

Target Entity: huSTING (WT) (Homo sapiens (Human), UniProt Q86WV6, H232R)
Assay Overview: Differential scanning fluorimetry (DSF), huSTING (WT)
Format: binding
Condition Summary: read-out: DSF huSTING (WT) ΔTm (° C.)
Method: DSF monitors thermal unfolding of protein in the presence of a fluorescent dye and is typically performed using a real-time PCR instrument. The temperature at which a protein unfolds is measured by an increase in the fluorescence of a dye with affinity for hydrophobic parts of the protein that are gradually exposed during unfolding. […] The fluorescence intensity is plotted as a function of the temperature, generating a sigmoidal curve that can be described by a two-state transition. […]
Measurement Kind: ΔTm at 100 µM

[[record]]
smiles_representation = "NC(=O)c1ccc(OCc2c(C(=O)O)sc3c(Cl)cccc23)cc1"
recorded_measurement = "3.29 °C"


Hey, quick one: what's ΔTm at 100 µM for each of these?
1. NC(=O)c1cc(F)c(OCc2c(C(=O)O)sc3cccc(Cl)c23)c(Br)c1
2. NC(=O)c1ccc(OCc2c(C(=O)O)sc3cccnc23)cc1
3. COc1cccc2sc(C(=O)O)c(COc3ccc(C(N)=O)cc3)c12
4. NC(=O)c1cc(F)c(OCc2c(C(=O)O)sc3cccc(F)c23)c(F)c1
5. NC(=O)c1cc(F)c(OCc2c(C(=O)O)sc3cccc(Cl)c23)c(F)c1
6. NC(=O)c1cc(Cl)c(OCc2c(C(=O)O)sc3cccc(Cl)c23)c(Cl)c1

OUTPUT:
["5.11 °C", "-0.35 °C", "3.76 °C", "3.43 °C", "9.49 °C", "3.66 °C"]

Hey, quick one: what's ΔTm at 100 µM for each of these?
1. NC(=O)c1ccc(OCc2c(C(=O)O)sc3ccccc23)cc1
2. N#Cc1cc(C(N)=O)ccc1OCc1c(C(=O)O)sc2cccc(Cl)c12

OUTPUT:
-1.15 °C
1.3 °C

====

Target Entity: huSTING (WT) (Homo sapiens (Human), UniProt Q86WV6, H232R)
Assay Overview: THP-1 reporter cell line assay, THP-1-Dual KI-hSTING-R232 cells
Type: cell-based
Condition Summary: read-out: Cellular EC50 huSTING (WT)
Measurement Kind: EC50

Solved entries:
[[record]]
smiles_representation = "CCOC(=O)c1sc2cccc(F)c2c1COc1ccc(C(N)=O)c(C(F)(F)F)c1"
recorded_measurement = "> 50 µM"

[[record]]
smiles_representation = "Nc1noc2cc(OCc3c(C(=O)O)sc4cccc(Cl)c34)ccc12"
recorded_measurement = "> 50 µM"

[[record]]
smiles_representation = "CCOC(=O)c1sc2c(Br)ccc(Cl)c2c1COc1c(F)cc(C(N)=O)cc1F"
recorded_measurement = "0.135 µM"

[[record]]
smiles_representation = "Cc1ccc2sc(C(=O)O)c(COc3ccc(C(N)=O)cc3)c2c1Cl"
recorded_measurement = "> 50 µM"

[[record]]
smiles_representation = "NC(=O)c1ccc(OCc2c(C(=O)O)sc3ccccc23)cc1"
recorded_measurement = "> 50 µM"


Hey, quick one: what's EC50 for each of these?
1. NC(=O)c1ccc(OCc2c(C(=O)O)sc3cccc(Cl)c23)cn1
2. NC(=O)c1ccc(OCc2c(C(=O)O)sc3ccc(Cl)cc23)cc1
3. CCOC(=O)c1sc2cccnc2c1COc1ccc(C(N)=O)cc1

OUTPUT:
> 50 µM
> 50 µM
16.9 µM

INPUT: Returns the measured EC50 for the input compound. Input: CCOC(=O)c1sc2cccc(Cl)c2c1COc1c(F)cc(C(N)=O)cc1CO
OUTPUT: 0.052 µM

====

Target Entity: human STING (HAQ) (Homo sapiens, UniProt Q86WV6, G230A/H232R/R293Q)
Assay Overview: biochemical
Format: binding
Condition Summary: 1 μM protein, compound at 100 μM
Label 1 when DSF huSTING (HAQ) ΔTm (° C.) is strictly below 5 °C; at or above that, label -1.

INPUT: Does the reported DSF huSTING (HAQ) ΔTm (° C.) of the following compound sit strictly below 5 °C? COc1cc(C(N)=O)cc(OC)c1OCc1c(C(=O)O)sc2cccc(Cl)c12
OUTPUT: 1

INPUT: Next entry: CCOC(=O)c1sc2cccc(F)c2c1CCc1ccc(C(N)=O)cc1
OUTPUT: 1

INPUT: Next entry: NC(=O)c1c(F)cc(OCc2c(C(=O)O)sc3cccc(Cl)c23)cc1F
OUTPUT: -1

INPUT: Next entry: NC(=O)c1ccc(OCc2c(C(=O)O)sc3cc(Cl)ccc23)cc1
OUTPUT: 1

INPUT: Next entry: NC(=O)c1ccc(OCc2c(C(=O)OCc3ccccc3)sc3cccc(F)c23)cc1
OUTPUT: 1

INPUT: Next entry: NC(=O)c1ccc(OCc2c(C(=O)O)sc3cccc(F)c23)c(F)c1
OUTPUT: -1

INPUT: Next entry: NC(=O)c1ccc(OCc2c(C(=O)O)sc3cccc(Cl)c23)cc1Br
OUTPUT: -1

INPUT: Next entry: Nc1noc2cc(OCc3c(C(=O)O)sc4cccc(Cl)c34)ccc12
OUTPUT: 1
